Target: recombinant PIM-1 (Homo sapiens (Human))
Sequence (P11309 whole entry): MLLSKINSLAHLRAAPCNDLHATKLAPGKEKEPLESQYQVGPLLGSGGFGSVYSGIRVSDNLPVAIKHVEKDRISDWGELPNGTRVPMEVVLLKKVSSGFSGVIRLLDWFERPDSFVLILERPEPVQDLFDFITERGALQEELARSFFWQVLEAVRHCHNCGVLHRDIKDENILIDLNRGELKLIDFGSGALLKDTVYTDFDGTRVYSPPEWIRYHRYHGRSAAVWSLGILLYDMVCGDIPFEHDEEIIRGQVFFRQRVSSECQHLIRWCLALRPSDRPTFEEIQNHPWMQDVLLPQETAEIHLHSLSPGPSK
Experiment: PIM-1 assay (33P-ATP filter binding)
Type: biochemical
Conditions: read-out: PIM1: IC50 (30 μM ATP)
The entries below are paired with their reported IC50.

{"columns": ["compound", "comparison_sign", "IC50 [nM]"],
 "data": [
  ["CCN1CCCC1CNc1cc(NC2CC2)n2ncc(/C=C3\\SC(=O)NC3=O)c2n1 (stereo not shown)", "=", 2060],
  ["CN1CCC(N(C)c2cc(NC3CC3)n3ncc(/C=C4\\SC(=O)NC4=O)c3n2)C1 (stereo not shown)", "=", 1450],
  ["O=C1NC(=O)/C(=C/c2cnn3c(NC4CC4)cc(Nc4cccc(Cl)c4)nc23)S1", ">", 2500],
  ["CN(C)c1cc(NC2CC2)n2ncc(/C=C3\\SC(=O)NC3=O)c2n1", ">", 2500],
  ["CC(C)CNc1cc(NC2CC2)n2ncc(/C=C3\\SC(=O)NC3=O)c2n1", "=", 2060],
  ["O=C1NC(=O)/C(=C/c2cnn3c(NC4CC4)cc(NCCF)nc23)S1", ">", 2500],
  ["CC(O)CNc1cc(NC2CC2)n2ncc(/C=C3\\SC(=O)NC3=O)c2n1 (stereo not shown)", "=", 2390],
  ["CCN(CC)c1cc(NC2CC2)n2ncc(/C=C3\\SC(=O)NC3=O)c2n1", ">", 2500],
  ["CN1C(=O)S/C(=C\\c2cnn3c(NC4CC4)cc(Nc4cccc(Cl)c4)nc23)C1=O", ">", 2500],
  ["O=C1NC(=O)/C(=C/c2cnn3c(NC4CC4)cc(N4CCOCC4)nc23)S1", "=", 918]
]}
